Give self-cleavage kobs at 640 uM GlcN6P for every item shown.
B1: glmS ribozyme (parent)
chain: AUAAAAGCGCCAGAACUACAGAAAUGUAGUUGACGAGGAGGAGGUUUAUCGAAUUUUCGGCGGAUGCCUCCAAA

# Variants of: B1
# protocol.text: self-cleavage kobs at 640 uM GlcN6P; higher = faster cleavage; RNA array
# run.parameters: with glucosamine-6-phosphate
Fewer inactive variants are shown than the library holds.
Write it as a number; the unit s⁻¹ goes unstated.

query: Name the reported self-cleavage kobs at 640 uM GlcN6P value associated with the variant AUAAAAGCGCCAGGACUACAGAAAUGUAGUUGACGAGGAGGGGGUUUAUCGAAUUUUCGGCGGAUGCCUCCAAA
result: 0.00956

query: Also need AUAAAAGCGCCAGAAGUACAGAAAUGUAGAUGACGAGGAGGAGGUUUAUCGAAUUUUCGGCGGAUGCCUCCAAA , thanks.
result: 0.00012

query: Also need AUAAAAGCGCCAGAGCUACAGAAAUGUAGUUGACGAGGAGGAGGUUUAUCGAGUUUUCGGCGGAUGCCUCCAAA , thanks.
result: 0.0109

query: Also need AUAAAAGCGCGAGAACUACAGAAAUGUAGUUGACGAGGAGGAGGUUUAUCGAAUUUUCGGCGGAUGGCUGCAAA , thanks.
result: 8.18e-05

query: Also need AUAAAAGCGCCAGAACUACAGAAAUGUAGUUGACGAGGAGGAGGUUUUUCGAAUUUUCGGCGGAUGCCUGCAAA , thanks.
result: 3.69e-05

query: Also need AUAAAAGCGCCAGAACUACAGAAAUGUAGUUAACGAGGAGGAGGUUUAUCGGAUUUUCGGCGGAUGCCUCCAAA , thanks.
result: 5.19e-05

query: Also need AUAAAAGCGCCAGGACUACAGAAAUGUAGUUGACGAGGAGGAGGUUUAUCGAAUCUUCGGCGGAUGCCUCCAAA , thanks.
result: 0.0382

query: Also need AUAAAAGCGCCAGAACUACAGAAAUGUAGUUGACGAGGGGGAGGUUUAUCGAAUUUUCGGCGGAUCCCUCCAAA , thanks.
result: 0.000484

query: Also need AUAAAAGCGCCAGAACUACAGAAAUGUAGUUGACGAGGAGGAGGUUUAUCGAAUUUUUGGCGGAUGGCUCCAAA , thanks.
result: 3.77e-05

query: Also need AUAAAAGCGCCAGAACUACAGAAAUGUAGUGGACGAGGAGGAGGUUUAUCGGAUUUUCGGCGGAUGCCUCCAAA , thanks.
result: 8.36e-05

query: Also need AUAAAAGCGCCAGAACUACAGAAAUGUAGAUGACGAGGAGGGGGUUUAUCGAAUUUUCGGCGGAUGCCUCCAAA , thanks.
result: 0.0017

query: Also need AUAAAAGCGCCUGAACUACAGAAAUGUAGUUCACGAGGAGGAGGUUUAUGGAAUUUUCGGCGGAUGCCUGCAAA , thanks.
result: 0.000371

query: Also need AUAAAAGCGCCAGAACUACAGAAAUGUAGUUGACGAGGAGGAGGGUUAUCGAAAUUUCGGCGGAUGCCUCCAAA , thanks.
result: 0.00206

query: Also need AUAAAAGCGCCAGAACUACAGAAAUGUAGUCGACGAGGAGGAGGUAUAUCGAAUUUUCGGCGGAUGCCUCCAAA , thanks.
result: 6.31e-05

query: Also need AUAAAAGCGCCAGAACUACAGAAAUGUAGUUGACGAGGAGGAGGUUUAUCGAAUUUUCGGCGGGUUCCUUCAAA , thanks.
result: 0.000373

query: Also need AUAAAAGCGCUAGAAUUACAGAAAUGUAGUUGACGAGGAGGAGGUUUAUCGAAUUUUCGGCGGAUGCCUCCAAA , thanks.
result: 0.000352

query: Also need AUAAAAGCGCCAGAACUACAGAAAUGUAGUUGACGAGGAGGACGUUUAUCGAGUUUUCGGCGGAUGCUUCCAAA , thanks.
result: 0.000435

query: Also need AUAAAAGCGCCAGAACUACAGAAAUGUAGUUGACGAGGAGGAGGUUUAUCGACUUUUCGGCGGAAGCCUCCAAA , thanks.
result: 9.23e-05

query: Also need AUAAAAGCGCCAGAACUACAGAAAUGUAGUUGACGAGGAGGAGGUUUAUCGAAUUUUCGGCGGGUGCCUCUAAA , thanks.
result: 0.00177

query: Also need AUAAAAGCGCCAGAACUACAGAAAUGUACUUAACGAGGAGGAGGUUUAUCGAAUUUUCGGCGGAUGCCUCCAAA , thanks.
result: 0.000251

query: Also need AUAAAAGCGCCAGAACUACAGAAAUGUAGUUGACGAGGAGGAGGUUUAUCGAAUUUUCGGCGGAUCCCGCCAAA , thanks.
result: 8.02e-05

query: Also need AUAAAAGCGCCAGAACUACAGAAAUGUAGUUGACGAGGAGGAGGUUUAUCUAAUUUUCGGCGGAUGUCCCCAAA , thanks.
result: 5.75e-05

query: Also need AUAAAAGCGCCAGAACUACAGAAAUGUAGUUGACGAGGAUGAGGGUUAUCGAAUUUUCGGCGGAUGCCUCCAAA , thanks.
result: 0.000582

query: Also need AUAAAAGCGCCAGAACUACAGAAAUGUAGUUGACGAGGAGGAGGUAUAUCGAAUUUUCGGCGGAUGCCUACAAA , thanks.
result: 0.000115

query: Also need AUAAAAGCGUCAGAACUACAGAAAUGUAGUUGACGAGGAGGAGGUUUAUCGAUUUUUCGGCGGAUGAGUCCAAA , thanks.
result: 4.13e-05
